Form field: solubility kinetic at 24 h (one value per entry).
test: Kinetic solubility of the compound in pH 7.4 buffer measured after 24 hrs by LC-UV analysis; format: physicochemical; conditions: read-out: Kinetic_solubility
readout: solubility kinetic at 24 h

{"smiles": "CCOc1cc(Oc2cc(C)c(Cl)c(C)c2)cc2c1OCC(=O)N[C@H]1CC[C@H](CC1)CC(=O)N[C@@H](c1ccccc1)C(=O)N[C@H](Cc1ccncc1)C(=O)NCCc1ccc(cc1)OC2", "readout": "solubility kinetic at 24 h", "value": "< 2 µM"}
{"smiles": "CCOc1cc(Oc2cc(C)c(Cl)c(C)c2)cc2c1OCC(=O)N[C@H]1CC[C@H](CC1)CC(=O)N[C@@H](c1ccccc1)C(=O)N[C@H](Cc1ccccc1)C(=O)NCCc1ccc(cc1)NC2", "readout": "solubility kinetic at 24 h", "value": "< 2 µM"}
{"smiles": "CCOc1cccc2c1OCC(=O)N[C@H]1CC[C@H](CC1)CC(=O)N[C@@H](Cc1ccc(O)cc1)C(=O)N[C@H](Cc1ccccc1)C(=O)NCCc1ccc(cc1)OC2", "readout": "solubility kinetic at 24 h", "value": "37 µM"}
{"smiles": "CCOc1cc(Oc2cc(C)cc(C)c2)cc2c1OCC(=O)N[C@H]1CC[C@H](CC1)CC(=O)N[C@@H](c1ccccc1)C(=O)N[C@H](Cc1ccccc1)C(=O)NCCc1ccc(cc1)NC2", "readout": "solubility kinetic at 24 h", "value": "< 2 µM"}
{"smiles": "CCOc1cc(Oc2cc(C)c(Cl)c(C)c2)cc2c1OCC(=O)N[C@H]1CC[C@H](CC1)CC(=O)N[C@@H]([C@@H](C)OC)C(=O)N[C@H](Cc1ccncc1)C(=O)NCCc1ccc(cc1)OC2", "readout": "solubility kinetic at 24 h", "value": "< 2 µM"}
{"smiles": "CCOc1cccc2c1OCC(=O)N[C@H]1CC[C@H](CC1)CC(=O)N[C@@](C)(c1ccccc1)C(=O)N[C@H](Cc1ccccc1)C(=O)NCCc1ccc(cc1)OC2", "readout": "solubility kinetic at 24 h", "value": "4 µM"}
{"smiles": "CCOc1cc(Oc2cc(C)c(Cl)c(C)c2)cc2c1OCC(=O)N[C@H]1CC[C@H](CC1)CC(=O)N[C@@H](c1ccccc1)C(=O)N[C@H](Cc1ccccc1)C(=O)NCCc1ccc(cc1)OC2", "readout": "solubility kinetic at 24 h", "value": "< 2 µM"}
{"smiles": "CCOc1cccc2c1OCC(=O)N[C@H]1CC[C@H](CC1)CC(=O)N[C@@H]([C@@H](C)OC)C(=O)N[C@H](Cc1ccccc1)C(=O)NCCc1ccc(cc1)OC2", "readout": "solubility kinetic at 24 h", "value": "25 µM"}
{"smiles": "CCOc1cc(Oc2cc(C)c(Cl)c(C)c2)cc2c1OCC(=O)N[C@H]1CC[C@H](CC1)CC(=O)N[C@@H](CC(C)C)C(=O)N[C@H](Cc1cccnc1)C(=O)N[C@H](C(=O)O)Cc1ccc(cc1)OC2", "readout": "solubility kinetic at 24 h", "value": "> 80 µM"}
{"smiles": "CCOc1cccc2c1OCC(=O)N[C@H]1CC[C@H](CC1)CC(=O)N[C@@H](CCSC)C(=O)N[C@H](Cc1ccccc1)C(=O)NCCc1ccc(cc1)OC2", "readout": "solubility kinetic at 24 h", "value": "9 µM"}
{"smiles": "CCOc1cc(Oc2cc(C)c(Cl)c(C)c2)cc2c1OCC(=O)N[C@H]1CC[C@H](CC1)CC(=O)N[C@@H](c1ccccc1)C(=O)N[C@H](Cc1cccnc1)C(=O)N[C@H](C(=O)O)Cc1ccc(cc1)OC2", "readout": "solubility kinetic at 24 h", "value": "> 80 µM"}
